# tested on: BARHL2 DBD T285M (NANOG) (human, UniProt Q9NY43 227-293, T285M)
# Sequence (Q9NY43 227-293 T285M): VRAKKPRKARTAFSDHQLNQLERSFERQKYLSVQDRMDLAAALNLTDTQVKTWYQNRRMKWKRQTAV
# assay comment: HT-SELEX; SELEX buffer: 10.4 mM Tris-HCl pH 7.5, 51.4 mM NaCl, 1.4 mM MgCl2, 4% glycerol, 100 uM EGTA, 0.7 mM DTT, 3.7 ug/ml poly-dI-dC, 1.4 uM ZnSO4; room temperature (2); high values mean tight binding
# condition: protein: recombinant; dsDNA, one strand shown
metric name: binding signal (fold enrichment)
Only the number, expressed in fold enrichment, is required.

| sequence text | metric name | obs value |
| --- | --- | --- |
| TAAGTG | binding signal | 4.4 |
| TAACCG | binding signal | 2.3 |
| TAATGG | binding signal | 6.2 |

// next item, binding signal requested
Given item "TAATCG" , the value recorded as its binding signal is 7.6

Cited source for all entries: paper PMC11996681
